- Study system: T1, c-Met-Fc chimera protein (UniProt P08581 25-932, limits assumed)
- T1 construct: Captured on the SPR chip by an anti-IgG antibody; not shown: Fc part
- T1 sequence (P08581 25-932 limits assumed, change not shown): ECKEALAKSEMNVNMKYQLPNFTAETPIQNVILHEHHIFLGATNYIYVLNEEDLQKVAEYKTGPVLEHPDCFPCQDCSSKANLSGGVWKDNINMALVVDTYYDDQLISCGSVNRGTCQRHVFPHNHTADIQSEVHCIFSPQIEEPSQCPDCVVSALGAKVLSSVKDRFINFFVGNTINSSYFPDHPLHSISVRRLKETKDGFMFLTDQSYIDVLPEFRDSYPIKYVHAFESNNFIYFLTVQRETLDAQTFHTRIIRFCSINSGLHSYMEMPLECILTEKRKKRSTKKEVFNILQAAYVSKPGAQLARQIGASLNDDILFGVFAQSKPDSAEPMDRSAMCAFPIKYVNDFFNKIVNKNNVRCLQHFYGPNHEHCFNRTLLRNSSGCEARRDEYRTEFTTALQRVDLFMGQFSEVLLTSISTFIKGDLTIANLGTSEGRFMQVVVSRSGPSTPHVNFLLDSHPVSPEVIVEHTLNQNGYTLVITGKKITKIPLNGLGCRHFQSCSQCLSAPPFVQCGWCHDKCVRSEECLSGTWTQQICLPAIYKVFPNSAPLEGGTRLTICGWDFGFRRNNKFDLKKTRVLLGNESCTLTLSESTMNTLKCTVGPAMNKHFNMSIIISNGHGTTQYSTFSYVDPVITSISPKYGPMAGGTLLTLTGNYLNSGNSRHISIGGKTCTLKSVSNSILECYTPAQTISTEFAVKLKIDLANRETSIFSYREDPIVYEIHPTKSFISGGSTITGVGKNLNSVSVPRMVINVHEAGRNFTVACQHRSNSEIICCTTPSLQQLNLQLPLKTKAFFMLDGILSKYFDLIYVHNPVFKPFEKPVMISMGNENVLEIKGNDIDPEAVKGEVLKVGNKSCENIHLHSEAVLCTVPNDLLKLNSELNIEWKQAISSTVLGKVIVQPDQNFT
- Assay notes: SPR presumed (Biacore as in 9-1; method not given), c-Met-Fc on chip
Bridges are numbered along the chain shown (N, C = ends). Where no end group is shown, it is not given here. [ ]: non-standard residue; d: D form. NMeR = CN[C@@H](CCCNC(=N)N)C(=O)O; NMeF = CN[C@@H](Cc1ccccc1)C(=O)O; NMeT = CN[C@H](C(=O)O)[C@@H](C)O; NMeD = CN[C@@H](CC(=O)O)C(=O)O; NMeV = CN[C@H](C(=O)O)C(C)C
Measured property: kon (M⁻¹ s⁻¹)
Output spec: scalar in M⁻¹ s⁻¹, unitless text.

// below: answered binders
| Binder | kon / M⁻¹ s⁻¹ |
| --- | --- |
| {CH2CO}-YRQFNRR[NMeT]HEVWNLDCG (thioether N-16) [D4-3-N8] | 27000 |
| {CH2CO}-YRQFNRRTHE[NMeV]WNLDCG (thioether N-16) [N11, N-methylated D4-3 peptide] | 15000 |
| {CH2CO}-Y[NMeR]QFNRRTHEVWNLDCG (thioether N-16 (inferred)) [N2, N-methylated D4-3 peptide] | 710000 |
| {CH2CO}-YRQ[NMeF]NRRTHEVWNLDCG (thioether N-16 (inferred)) [N4, N-methylated D4-3 peptide] | 120000 |
| {CH2CO}-YRQFNRRTHEVWNLDCG (thioether N-16; not fully specified, also called D4-3 peptide; D4-3 Monomer) [D4-3] | 1.3e+06 |

Consider the additional binder presented here.
Task: Form field: reported kon of {CH2CO}-YRQFNRRTHEVWNL[NMeD]CG (thioether N-16 (inferred)) [N15, N-methylated D4-3 peptide]
Result: 300000
